# TGI per record follows
System: DMS 273 small cell lung
Assay: NCI tumour cell line growth inhibition, 48 h

Worked cases, answers included:
# compound, measuredQuantity, val
rows = [
    ("C[N+](C)(C)CC1CCCCC1=O (configuration not stated)", "TGI", "> 100 µM"),
    ("OC1=CN=COc2ccccc21", "TGI", "> 100 µM"),
    ("O=C1c2ccccc2C(=O)C12CCc1ccccc12", "TGI", "> 100 µM"),
]

Consider the compound `CCOc1cccc2c1N[S@@](=O)S2` and give its measured TGI.
> 100 µM

Consider the compound `O=c1c2c(-c3ccccc3)c3ccccc3nc2cnn1-c1ccccc1` and give its measured TGI.
> 100 µM

Consider the compound CC1(C)OC(=S)N(c2ccccc2)C12C=Cc1cc3ccccc3nc1S2 (configuration not stated) and give its measured TGI.
> 100 µM

Consider the compound `CN(C)c1ccc(/C=C(\NC(=O)c2ccccc2)c2nc3ccc4c(c3[nH]2)C(=O)c2ccccc2C4=O)cc1` and give its measured TGI.
> 100 µM

Consider the compound `c1cc2c3c(c1)c1cc4c(cc1c[n+]3CC2)OCO4` and give its measured TGI.
30.5 µM

Consider the compound `CCOC(=O)C1Cc2ccc3c4c(ccc(c24)C1)CC(C(=O)OCC)C3` and give its measured TGI.
> 100 µM

Consider the compound `CCOC(=O)/C=C/c1c(C)[nH]c(=O)[nH]c1=O` and give its measured TGI.
> 250 µM

Consider the compound CCC1=CCN(c2cc(C)ccn2)OC1c1ccccc1 (configuration not stated) and give its measured TGI.
> 100 µM

Consider the compound CC1CC2(S(=O)(=O)c3ccccc3)ON1CC2S(=O)(=O)c1ccccc1 (configuration not stated) and give its measured TGI.
> 100 µM

###

Tested on: SK-OV-3 ovarian
Test: NCI tumour cell line growth inhibition, 48 h
measuredQuantity: TGI

Worked cases, answers included:
# molecule, TGI
records = [
    ("COc1cc(C(=O)N[C@H]2CCc3cc(OC)c(OC)c(OC)c3-c3ccc(SC)c(=O)cc32)cc(OC)c1OC", "0.0203 µM"),
    ("CSc1ncnc2c1ncn2CC(=O)C1CCC2C3CCC4=CC(=O)CCC4(C)C3CCC12C (centres undefined)", "> 100 µM"),
]

Consider the molecule `O=c1[nH]nc(-c2ccccc2)n1/N=C/c1cccc([N+](=O)[O-])c1` and give its measured TGI.
> 100 µM

Consider the molecule `O=c1nc2ccc([N+](=O)[O-])cc2[n+]([O-])[nH]1` and give its measured TGI.
> 100 µM

###

# TGI per record follows
System: SNB-75 CNS
Assay: NCI tumour cell line growth inhibition, 48 h

# smilesString, targetOrSystem, TGI
data = [
    ("COc1ccc(-c2c(C#N)c(N)nc(N3CCOCC3)c2C#N)cc1", "SNB-75 CNS", "60.7 µM"),
    ("CC(/C=C/C(O)=C1/C(=O)CNC1=O)=C\\[C@@H](C)[C@H]1O[C@@]2(C)O[C@H](C(=O)[C@@H]3O[C@@]32C)[C@@H]1C", "SNB-75 CNS", "63.1 µM"),
    ("CN=C(Nc1ccc(OC)c2ccccc12)SC", "SNB-75 CNS", "> 10 µM"),
    ("ClCc1cccc(Cn2cnc3c(Cl)nc(Cl)nc32)c1", "SNB-75 CNS", "3.89 µM"),
]

Consider the additional molecule presented here.
Lab request: please report TGI under test system SNB-75 CNS for `Cc1cccc2[nH]c3c(c(O)cc4[nH]c5cccc(C)c5c(=O)c43)c(=O)c12`
> 10 µM
